test system: KKAy mice; assay: Blood glucose and blood lipid (triglyceride) lowering action in mice; format: in vivo; conditions: Mus musculus, 4TO7, po, 0.03% in powder diet, 4 to 7 days, plasma triglyceride relative to non-administration group = 100%, read-out: hypolipidemic action (%)
Quick reference: response vs control in vivo at 0.03 % of the listed items.
Attribute Measured: response vs control in vivo at 0.03 % (%)

> print(dat)
                            molecule.smiles                     attribute.measured  val
1  CCCCCS(=O)(=O)NC(=O)CCc1cc(C(C)C)nn1Cc1ccc(C(F)(F)F)cc1Cl  response vs control in vivo at 0.03 %   57
2  CCCCCS(=O)(=O)NC(=O)CCc1cc(OC(C)C)nn1Cc1ccc(Cl)cc1Cl  response vs control in vivo at 0.03 %   60
3  CCCCCS(=O)(=O)NC(=O)/C=C/c1ccc(OCCOC)cc1Oc1ncc(C(F)(F)F)cc1Cl  response vs control in vivo at 0.03 %   43
4  CCCCCS(=O)(=O)NC(=O)CCc1ccc(OC(C)C)cc1Oc1ncc(C(F)(F)F)cc1Cl  response vs control in vivo at 0.03 %   41
5  CCCCCS(=O)(=O)NC(=O)CCc1ccc(OCCOC)cc1Oc1ncc(C(F)(F)F)cc1Cl  response vs control in vivo at 0.03 %   53
6  CCCCCS(=O)(=O)NC(=O)/C=C/c1cc(OC(C)C)nn1Cc1ccc(Cl)cc1Cl  response vs control in vivo at 0.03 %   79
7  CCCCCS(=O)(=O)NC(=O)CCc1cc(OC(C)C)nn1Cc1ccc(C(F)(F)F)cc1Cl  response vs control in vivo at 0.03 %   76
8  CCCCOC(=O)NS(=O)(=O)CCc1cc(OCCCC)nn1Cc1ccc(Cl)cc1Cl  response vs control in vivo at 0.03 %   76
